Values were extracted from patent US20260263521A1.

Molecular target: T1, human CD200R1 with dual His-tags (human, UniProt Q8TD46 25-265)
T1 construct: Captured on the SPR chip by an anti-histidine antibody; also called hCD200R1-his; not shown: dual His-tags
T1 sequence (looked up): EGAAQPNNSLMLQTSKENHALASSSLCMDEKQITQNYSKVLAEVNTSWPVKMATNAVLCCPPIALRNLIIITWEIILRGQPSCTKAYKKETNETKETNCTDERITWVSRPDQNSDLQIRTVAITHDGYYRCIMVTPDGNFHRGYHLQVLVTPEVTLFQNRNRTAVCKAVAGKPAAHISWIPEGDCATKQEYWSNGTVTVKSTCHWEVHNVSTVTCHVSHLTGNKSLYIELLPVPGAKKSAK
Experiment: SPR (Biacore CM5), His-tagged antigen captured by anti-histidine antibody, antibody as analyte, 1:1 Langmuir fit
EXPERIMENTAL_ENDPOINT: koff
Quote the value and follow it with the unit of measurement.

input: Name the reported koff value associated with the binder P001009v2 (antibody, V domains shown, P001009 with LC S52K and D93R (Kabat); also called P019001v2) VH: EVQLLESGGGLVQPGGSLRLSCAASGFTFSSYDMSWVRQAPGKGLEWVSWISHGGGSIYYADSVKGRFTISRDNSKNTLYLQMNSLRAEDTAVYYCARDAPAYSAPLFDYWGQGTLVTVSS VL: QSVLTQPPSASGTPGQRVTISCSGSSSNIGNNAVNWYQQLPGTAPKLLIYYDKNRPSGVPDRFSGSKSGTSASLAISGLRSEDEADYYCAAWDRSLSGYVFGGGTKLTVL
output: 0.00654 s⁻¹
